- TESTED TARGET: Ezrin FERM domain (human, UniProt P15311 2-296)
- Sequence (P15311 2-296): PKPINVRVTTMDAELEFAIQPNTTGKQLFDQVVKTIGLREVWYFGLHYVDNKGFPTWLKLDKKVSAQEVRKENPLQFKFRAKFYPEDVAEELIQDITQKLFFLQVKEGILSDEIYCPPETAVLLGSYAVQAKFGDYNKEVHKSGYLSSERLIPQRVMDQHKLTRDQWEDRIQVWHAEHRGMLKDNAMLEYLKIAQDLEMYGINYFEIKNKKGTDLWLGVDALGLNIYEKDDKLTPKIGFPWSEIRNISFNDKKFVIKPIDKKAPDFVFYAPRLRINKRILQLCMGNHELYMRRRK
- CONDITIONS USED: both partners purified
OUTCOME MEASURE: pKi
As a rule, pKi stands for the negative log10 of the concentration, concentration in M.

INPUT: For the binder VETSNSFDVLKSEDAQY [NSP3 peptide 2019-2034 (Sars-CoV2)] , what pKi is on record?
OUTPUT: 4.42
